test-name: Plasma concentrations (PK), Example 1
Format: in vivo, human
assay-context: human, plasma, oral, 100 mg, weight >90 kg, 100 mg QD, Week 16, Intermediate; read-out: Plasma concentration, Mean

molecule: CC(=O)NCCCC[C@@H]1NC(=O)[C@H](Cc2c[nH]c3c(C)cccc23)NC(=O)[C@H]([C@@H](C)O)NC(=O)[C@H](CC(N)=O)NC(=O)[C@@H](NC(C)=O)C(C)(C)SSC(C)(C)[C@@H](C(=O)N[C@@H](Cc2ccc(OCCN)cc2)C(=O)N[C@@H](Cc2ccc3ccccc3c2)C(=O)NC2(C(=O)N[C@@H](CCC(=O)O)C(=O)N[C@@H](CC(N)=O)C(=O)N[C@@H](Cc3cccnc3)C(=O)N(C)CC(N)=O)CCOCC2)NC1=O [IL-23 receptor antagonist peptide]
level at 2688 h (ng/mL): 0.378
